system: A673 NR0B1-luciferase reporter, viability-normalised luminescence; assay: suppressors of NR0B1-promoter luciferase reporter, dose response, EWS/Fli inhibitor project, luciferase luminescence, A673 cells, cherry-pick (AID 686920)
readoutType: AC35

In plain terms, O=c1c2ccccc2nc(/C=C/c2cc(Br)ccc2O)n1CCCO has a documented AC35 of 23.9 µM

In plain terms, C[C@H]1CN([C@@H](C)CO)C(=O)c2cc(N(C)C)ccc2O[C@@H]1CN(C)Cc1ccc(C(=O)Nc2ccccc2N)cc1 has a documented AC35 of 9.36 µM

In plain terms, C[C@H]1CN([C@@H](C)CO)C(=O)c2cccc(NC(=O)CCCCCC(=O)Nc3ccccc3N)c2O[C@@H]1CN(C)Cc1ccc2c(c1)OCO2 has a documented AC35 of 15.2 µM

In plain terms, N#C[C@@H]1[C@H](c2ccc(C#Cc3cccc(F)c3)cc2)[C@@H](CO)N1C(=O)C1CCCC1 has a documented AC35 of 4.38 µM

In plain terms, COc1ccc(OC)c(-c2nnc3n2N=C(c2ccc(OC)c(OC4CCOC4)c2)CS3)c1 (stereo not drawn) has a documented AC35 of 6.56 µM

In plain terms, CCCCCCCN(c1ccccc1)[C@@H]1C[C@H]2CCCC(=O)N3CC[C@@H](C1)[C@@H]23 has a documented AC35 of 11.8 µM

In plain terms, C[C@@H]1CN([C@@H](C)CO)C(=O)c2cccc(N(C)C)c2O[C@@H]1CN(C)Cc1ccc(C(=O)Nc2ccccc2N)cc1 has a documented AC35 of 39.8 µM

In plain terms, CN(C)c1ccc(-c2ccnc3c2CC(C)(C(=O)NCc2ccco2)O3)cc1 (stereo not drawn) has a documented AC35 of 6.85 µM
